Target: geranylgeranyl protein transferase (GGPT) I (Rattus norvegicus, UniProt P53610+Q04631)
Construct: were partially purified from rat brain by ammonium sulfate fractionation
Assay: In vitro enzyme assay: inhibition of geranylgeranyl protein transferase I (GGPT), Ras-CVLL as acceptor
Record form. Attribute: IC50. Fill in for each entry.

Lab note: geranylgeranyl protein transferase (GGPT) I (Rattus norvegicus, UniProt P53610+Q04631) assay, enter IC50 for O=C(Cc1cc[n+]([O-])cc1)N1CCN(C2c3ncc(Br)cc3CCc3cccc(Cl)c32)CC1 (single isomer, unassigned) here
> 38 µM

Please tell me the measured IC50 for O=C(Cc1cc[n+]([O-])cc1)N1CCN(C2c3ccc(Cl)c(Br)c3CCc3cc(Br)cnc32)CC1 (racemic) ; system: geranylgeranyl protein transferase (GGPT) I (Rattus norvegicus, UniProt P53610+Q04631).
> 300 µM
